# Test system: heterozygous GAT-HRA corn
# Measurement description: Postemergence effect of ALS herbicides, glyphosate and glufosinate (fresh weight, visual injury)
# Particulars: applied two weeks after planting, 200 g/ha (glyphosate 3472 g ae/ha, glufosinate ammonium 1870 g/ha), fresh shoots 2 weeks after treatment, mean of four replications, untreated 98.8 g
I would appreciate it if you labelled entries Y when Fresh Weight (g) Heterozygous GAT-HRA is 90 g or higher, otherwise N.

- Compound: "COc1cc(OC)nc(NC(=O)NS(=O)(=O)c2ncccc2OCC(F)(F)F)n1 [Trifloxysulfuron Na^+]"
  Assigned label: "N"

Now consider a different compound.
Could you tell me if the measured Fresh Weight (g) Heterozygous GAT-HRA of CC(C)C1(C)N=C(c2nc3ccccc3cc2C(=O)O)NC1=O (centres unmarked) [Imazaquin] reaches 90 g or more?
Y

The measurements presented in this section are drawn from patent US20080234130A1.
